MEASURED_ON: Luciferin 4-monooxygenase (Photinus pyralis) (UniProt P08659)
Sequence (P08659 whole entry, looked up): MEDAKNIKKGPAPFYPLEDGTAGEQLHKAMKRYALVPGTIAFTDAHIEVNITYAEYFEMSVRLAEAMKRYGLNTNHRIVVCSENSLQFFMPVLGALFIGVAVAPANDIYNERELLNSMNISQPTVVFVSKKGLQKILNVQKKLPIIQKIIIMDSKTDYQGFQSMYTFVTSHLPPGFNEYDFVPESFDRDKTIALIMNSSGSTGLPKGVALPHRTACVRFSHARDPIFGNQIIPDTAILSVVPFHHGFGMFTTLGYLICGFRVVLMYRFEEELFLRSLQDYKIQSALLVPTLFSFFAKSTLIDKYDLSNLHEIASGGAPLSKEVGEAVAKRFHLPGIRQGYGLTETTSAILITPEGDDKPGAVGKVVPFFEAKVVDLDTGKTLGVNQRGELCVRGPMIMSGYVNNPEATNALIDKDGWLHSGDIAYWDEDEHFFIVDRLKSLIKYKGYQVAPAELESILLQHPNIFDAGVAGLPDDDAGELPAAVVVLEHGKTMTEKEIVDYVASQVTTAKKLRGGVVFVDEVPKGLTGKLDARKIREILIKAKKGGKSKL
ASSAY: qHTS assay to identify small molecule inhibitors of firefly luciferase (AID 1224835); further: nearly all actives have a fitted effect of over 25% in size
TEST_SETTINGS: purified P. pyralis luciferase, luminescence inhibition; series mostly up to 115 µM
Results filed as inconclusive are left out. Active and inactive are the calls of the source. The call rests on the fitted dose curve; in most records, active means well fitted inhibition curve with a large enough effect in the repeat runs; inconclusive means weak or mixed curves; inactive means flat fitted curve, though single readings scatter.
Outcomes you can answer with include only these: active, inactive

Below, 5 molecules whose answers are already recorded.
MOLECULE	GROUP_LABEL
CCCCOC(=O)CCS	inactive
Nc1nccs1	inactive
NC(=O)Cn1c(=O)cc(CCN2CCN(c3nccc4sccc34)CC2)c2ccc(F)cc21	active
CC(C)CCCCCOC(=O)CCCCC(=O)OCCCCCC(C)C	inactive
CCN(Cc1cccc(S(=O)(=O)O)c1)c1ccc(C(=C2C=CC(=[N+](CC)Cc3cccc(S(=O)(=O)[O-])c3)C=C2)c2ccccc2)cc1	active

Write down the call the test reported for this molecule. Item: CCCCC(CC)C(=O)OCCOCCOCCOCCOC(=O)C(CC)CCCC (configuration not stated)
inactive

// param item: `O=Cc1c(Cl)cccc1Cl` ; yields the recorded call
inactive

----------
ASSAY: qHTS assay to identify small molecule agonists of the farnesoid-X-receptor (FXR) signaling pathway - cell viability counter screen (AID 743218); further: on the % scale 0 is the no-effect control and ±100 the full control effect; nearly all actives have a fitted effect of over 45% in size
TEST_SETTINGS: FXR-bla HEK293T viability, CellTiter-Glo luminescence, 16 h; series mostly up to 62.6 µM
Records with an inconclusive call do not appear. Calls of active or inactive are those of the source. Calls follow the shape of the dose curve; as a rule, active = well fitted cell-killing curve with a large enough effect in the repeat runs; inconclusive = weak or mixed curves, or effect the other way; inactive = no such curve, though single readings can be large or run the other way.
Hello, when you answer, please use one of the following outcomes: active, inactive

As a guide, the following entries are already answered.
MOLECULE	GROUP_LABEL
Cc1cc(OI)c(C(C)C)cc1-c1cc(C(C)C)c(OI)cc1C	inactive
CN(C(=O)C(Cl)Cl)c1ccc(OC(=O)c2ccco2)cc1	inactive
CCCOCCOCCO	inactive
Cc1ccccc1N1C(=O)c2cc(S(N)(=O)=O)c(Cl)cc2NC1C (stereo not given)	inactive
CC(C)CCCC(=O)O	inactive
O=C(O)c1cccnc1C(=O)O	inactive

Assay outcome for `CC(C)CCCCCCOC(=O)CCCCC(=O)OCCCCCCC(C)C` : what was it?
inactive

Hi, do you know how CC(CCc1ccc2c(c1)OCO2)NN (stereo not given) came out in this test?
inactive

Hi, sorry to bother you, what did the test record for `CCCCCCCCCCCC[N+](C)(C)CCCS(=O)(=O)[O-]` ?
inactive

Record request — test call for C=CC(C)(O)CCCC(C)CCCC(C)CCCC(C)C (stereo not given)
inactive

----------
MEASURED_ON: Estrogen receptor (Homo sapiens)
ASSAY: qHTS assay to identify small molecule antagonists of the estrogen receptor alpha (ER-alpha) signaling pathway using the BG1 cell line in the presence of 0.1 nM 17-beta-estradiol (AID 1259244); further: nearly all actives have a fitted effect of over 50% in size
TEST_SETTINGS: VM7Luc4E2 (BG1) ERE-luciferase, antagonist mode, 0.1 nM E2, 22 h; series mostly up to 92.4 µM
Results filed as inconclusive are left out. Calls of active or inactive are those of the source. Calls come from the whole dose curve; as a rule, active = well fitted inhibition curve with a large enough effect in the repeat runs; inconclusive = weak or mixed curves; inactive = no such curve, though single readings can be large or run the other way.
API: response.call in active, inactive

Worked cases, answers included:
MOLECULE	GROUP_LABEL
CCOC(=O)c1ccccc1C	inactive
CC(C)(C)CC(C)(C)c1ccc(OCCO)cc1	active
CC1(C)O[C@@H]2C[C@H]3[C@@H]4CCC5=CC(=O)C=C[C@]5(C)[C@H]4[C@@H](O)C[C@]3(C)[C@]2(C(=O)CO)O1	inactive
O=C1OCCN1/N=C/c1ccc([N+](=O)[O-])o1	inactive
CC(=O)Nc1ccc(N)cc1	inactive

Record request — test call for `CN1CCCN=C1/C=C/c1cccs1`
inactive

Could you check what this test reported for `CN1Cc2cc(C(=O)N3CCC(C4CCNCC4)CC3)ccc2N[C@@H](CC(=O)O)C1=O` ?
inactive

Field: outcome | Entry: `CCN(CC)CCNC(=O)c1ccc(NC(C)=O)cc1`
inactive

Call for entry `CC(C)=CC=O` :
inactive

Would you mind telling me which call this test gave `CCCCCCCCCCCC[N+](C)(C)CC(=O)[O-]` ?
inactive

----------
What activity change, negative = inhibition was measured for each of the following?
MEASURED_ON: Cytochrome P450 2C19 (Homo sapiens) (UniProt P33261)
Sequence (P33261 whole entry, looked up): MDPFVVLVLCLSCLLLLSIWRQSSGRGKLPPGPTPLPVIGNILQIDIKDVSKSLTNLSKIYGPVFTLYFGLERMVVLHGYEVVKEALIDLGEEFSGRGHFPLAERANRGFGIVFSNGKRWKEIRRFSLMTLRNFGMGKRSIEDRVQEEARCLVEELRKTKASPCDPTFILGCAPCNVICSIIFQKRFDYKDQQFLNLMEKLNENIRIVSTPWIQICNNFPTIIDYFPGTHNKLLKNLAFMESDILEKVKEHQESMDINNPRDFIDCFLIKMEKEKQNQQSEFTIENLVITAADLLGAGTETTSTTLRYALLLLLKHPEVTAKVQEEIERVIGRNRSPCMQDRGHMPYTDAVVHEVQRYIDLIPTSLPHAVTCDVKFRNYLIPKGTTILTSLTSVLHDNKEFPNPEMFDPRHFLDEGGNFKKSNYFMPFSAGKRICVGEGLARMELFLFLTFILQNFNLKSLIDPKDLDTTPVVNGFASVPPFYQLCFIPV
ASSAY: Cytochrome P450 Family 2 Subfamily C Member 19 (CYP2C19) small molecule antagonists: luciferase reporter qHTS assay (AID 1671197); further: on the % scale 0 is the no-effect control and ±100 the full control effect; nearly all actives have a fitted effect of over 65% in size
TEST_SETTINGS: P450-Glo CYP2C19 enzyme, luciferin luminescence, 1 h; series mostly up to 115 µM
Excerpt: National Center for Advancing Translational Sciences [NCATS] U.S. Environmental Protection Agency [EPA] National Institutes of Environmental Health Sciences [NIEHS] National Toxicology Program [NTP] U.S. Food and Drug Administration [FDA] Cytochrome P450 (CYP) enzymes are membrane-bound hemeproteins that play a key role in metabolism of drugs and xenobiotics. […] The luciferin products formed are detected with a luciferin detection reagent, and the amount of light produced is proportional to CYP activity. […]
Inconclusive results are not listed. The source made the active and inactive calls. The call rests on the fitted dose curve; in most records, active means well fitted inhibition curve with a large enough effect in the repeat runs; inconclusive means weak or mixed curves; inactive means no such curve, though single readings can be large or run the other way.

MOLECULE	activity change, negative = inhibition
CN1CCN(c2c(F)cc3c(=O)c(C(=O)O)cn4c3c2OCN4C)CC1	-8.19% [at 23.6 µM] (inactive)
C=CCCCCCCCCCCCCCCCC	5.26% [at 10.5 µM] (inactive)
CCCCCCCCCCCCCCCCBr	0.164% [at 23.6 µM] (inactive)

Please look at the following molecule next.
Using the record for CC1CN(c2cc3c(cc2F)c(=O)c(C(=O)O)cn3-c2ccc(F)cc2F)CCN1 (centres undefined) , state its measured activity change, negative = inhibition.
31.4% [at 10.5 µM] (inactive)

----------
Kindly state Potency for each of the entries shown.
ASSAY: qHTS RealTime-Glo MT Cell Viability Assay in HEK293 cells - 0 hour (AID 1224880); further: potency means the concentration at half of the fitted maximal effect; nearly all actives have a fitted effect of over 45% in size
TEST_SETTINGS: RealTime-Glo luminescence; series mostly up to 76.8 µM
Source text: U.S. Tox21 Program National Center for Advancing Translational Sciences [NCATS] NIH Chemical Genomics Center [NCGC] U.S. Environmental Protection Agency [EPA] National Institutes of Environmental Health Sciences [NIEHS] National Toxicology Program [NTP] U.S. Food and Drug Administration [FDA] Tox21 Assay Overview: Measure of cell viability is critical in the cell-base assay. Analysis of cell viability is necessary for the characterization of cell responses to cytotoxic drugs and environmental stress. […]
Inconclusive results are not listed. The source made the active and inactive calls. Calls follow the shape of the dose curve; as a rule, active = well fitted cell-killing curve with a large enough effect in the repeat runs; inconclusive = weak or mixed curves, or effect the other way; inactive = flat fitted curve, though single readings scatter.

COMPOUND	Potency
CC(=O)OCC(=O)[C@H]1CC[C@H]2[C@@H]3CCC4=CC(=O)CC[C@]4(C)[C@H]3CC[C@]12C	9.52 µM (active)
COCCOC(=O)C1=C(C)NC(C)=C(C(=O)OC/C=C/c2ccccc2)C1c1cccc([N+](=O)[O-])c1 (centres undefined)	5.35 µM (active)
CC(=O)[C@H]1CC[C@H]2[C@@H]3C[C@H](C)C4=CC(=O)CC[C@]4(C)[C@H]3[C@@H](O)C[C@]12C	1.69 µM (active)

Input `CC1(C)C2=CCCC(C)(C)[C@]23CC[C@H]1C3` , output reported Potency.
24.5 µM (active)

----------
MEASURED_ON: Estrogen receptor (Homo sapiens)
ASSAY: qHTS assay to identify small molecule antagonists of the estrogen receptor alpha (ER-alpha) signaling pathway using the BG1 cell line in the presence of 0.1 nM 17-beta-estradiol (AID 1259244); further: nearly all actives have a fitted effect of over 50% in size
TEST_SETTINGS: VM7Luc4E2 (BG1) ERE-luciferase, antagonist mode, 0.1 nM E2, 22 h; series mostly up to 92.4 µM
Inconclusive results are not listed. Calls of active or inactive are those of the source. Calls come from the whole dose curve; as a rule, active = well fitted inhibition curve with a large enough effect in the repeat runs; inconclusive = weak or mixed curves; inactive = no such curve, though single readings can be large or run the other way.
Choose one outcome from this list and give only that: active, inactive

The following compounds have reported results that may help.
COMPOUND	GROUP_LABEL
C1COCO1	inactive
CCC(C(=O)OCCN(CC)CC)c1ccccc1 (centres undefined)	inactive
CCCCCCCCCCOS(=O)(=O)O	inactive
CC1=CC(O)CC(C)(C)C1 (centres undefined)	inactive
CC1=C(C=O)C(C)(C)CCC1	inactive

Proceed to the following item.
I would be grateful if you could indicate the recorded call for `O=C(O)c1cccc(O)c1` .
inactive

----------
ASSAY: qHTS RealTime-Glo MT Cell Viability Assay in HepG2 cells - 8 hour (AID 1224873); further: on the % scale 0 is the no-effect control and ±100 the full control effect; nearly all actives have a fitted effect of over 55% in size
TEST_SETTINGS: RealTime-Glo luminescence; series mostly up to 76.8 µM
Text: National Center for Advancing Translational Sciences [NCATS] NIH Chemical Genomics Center [NCGC] U.S. Environmental Protection Agency [EPA] National Institutes of Environmental Health Sciences [NIEHS] National Toxicology Program [NTP] U.S. Food and Drug Administration [FDA] Measure of cell viability is critical in the cell-base assay. Analysis of cell viability is necessary for the characterization of cell responses to cytotoxic drugs and environmental stress. […]
Results filed as inconclusive are left out. The source made the active and inactive calls. Calls come from the whole dose curve; as a rule, active = well fitted cell-killing curve with a large enough effect in the repeat runs; inconclusive = weak or mixed curves; inactive = flat fitted curve, though single readings scatter.
Would you mind answering with one of these outcomes? true (1) (active), false (0) (inactive)

These recorded examples may help you get a feel for the data.
COMPOUND	GROUP_LABEL
Cc1ccc(/C=N/n2c(-c3ccccc3)csc2=S)cc1	false (0)
CCCCC(CC)COC(=O)COc1ccc(Cl)cc1C (stereo not drawn)	false (0)

// switching to the query compound
What call does the record list for `C/C=C/C=C/CCCCCCCO` ?
false (0)
